System: DU-145
Assay: Cytotoxicity against human DU145 cells after 2 days by CCK8 assay
Assay type: functional, cell-based
Conditions: DU-145, 48 h
pIC50: −log10 of the molar value.
Listed here are compounds together with their documented pIC50.
measured_endpoint: pIC50

compound | measured_endpoint | measured
Oc1ccccc1-c1cc(-c2ccco2)nc2c1COc1ccccc1-2 | pIC50 | 5.61
COc1cccc2c1C(=O)c1c(O)c3c(c(O)c1C2=O)C[C@@](O)(C(=O)CO)C[C@@H]3O[C@H]1C[C@H](N)[C@H](O)[C@H](C)O1 [DOXORUBICIN] | pIC50 | 6.02
Oc1ccccc1-c1cc(-c2cccs2)nc2c1COc1ccccc1-2 | pIC50 | 5.22
Oc1ccc(-c2cc(-c3cccc(O)c3)nc3c2COc2ccccc2-3)cc1 | pIC50 | 6.09
Oc1cccc(-c2cc(-c3ccsc3)nc3c2COc2ccccc2-3)c1 | pIC50 | 5.52
Oc1ccc(-c2cc(-c3ccco3)nc3c2COc2ccccc2-3)cc1 | pIC50 | 5.35
Oc1ccc(-c2cc(-c3cccs3)nc3c2COc2ccccc2-3)cc1 | pIC50 | 6.08
Oc1cccc(-c2cc(-c3ccccc3O)c3c(n2)-c2ccccc2OC3)c1 | pIC50 | 6.20
Oc1ccc(-c2cc(-c3ccc(O)cc3)c3c(n2)-c2ccccc2OC3)cc1 | pIC50 | 5.42
Oc1cccc(-c2cc(-c3ccccc3)nc3c2COc2ccccc2-3)c1 | pIC50 | 5.63

====

Reported inhibition values for the following compounds.
Target: DNA topoisomerase 2-alpha (Homo sapiens) (UniProt P11388)
Sequence (P11388 whole entry): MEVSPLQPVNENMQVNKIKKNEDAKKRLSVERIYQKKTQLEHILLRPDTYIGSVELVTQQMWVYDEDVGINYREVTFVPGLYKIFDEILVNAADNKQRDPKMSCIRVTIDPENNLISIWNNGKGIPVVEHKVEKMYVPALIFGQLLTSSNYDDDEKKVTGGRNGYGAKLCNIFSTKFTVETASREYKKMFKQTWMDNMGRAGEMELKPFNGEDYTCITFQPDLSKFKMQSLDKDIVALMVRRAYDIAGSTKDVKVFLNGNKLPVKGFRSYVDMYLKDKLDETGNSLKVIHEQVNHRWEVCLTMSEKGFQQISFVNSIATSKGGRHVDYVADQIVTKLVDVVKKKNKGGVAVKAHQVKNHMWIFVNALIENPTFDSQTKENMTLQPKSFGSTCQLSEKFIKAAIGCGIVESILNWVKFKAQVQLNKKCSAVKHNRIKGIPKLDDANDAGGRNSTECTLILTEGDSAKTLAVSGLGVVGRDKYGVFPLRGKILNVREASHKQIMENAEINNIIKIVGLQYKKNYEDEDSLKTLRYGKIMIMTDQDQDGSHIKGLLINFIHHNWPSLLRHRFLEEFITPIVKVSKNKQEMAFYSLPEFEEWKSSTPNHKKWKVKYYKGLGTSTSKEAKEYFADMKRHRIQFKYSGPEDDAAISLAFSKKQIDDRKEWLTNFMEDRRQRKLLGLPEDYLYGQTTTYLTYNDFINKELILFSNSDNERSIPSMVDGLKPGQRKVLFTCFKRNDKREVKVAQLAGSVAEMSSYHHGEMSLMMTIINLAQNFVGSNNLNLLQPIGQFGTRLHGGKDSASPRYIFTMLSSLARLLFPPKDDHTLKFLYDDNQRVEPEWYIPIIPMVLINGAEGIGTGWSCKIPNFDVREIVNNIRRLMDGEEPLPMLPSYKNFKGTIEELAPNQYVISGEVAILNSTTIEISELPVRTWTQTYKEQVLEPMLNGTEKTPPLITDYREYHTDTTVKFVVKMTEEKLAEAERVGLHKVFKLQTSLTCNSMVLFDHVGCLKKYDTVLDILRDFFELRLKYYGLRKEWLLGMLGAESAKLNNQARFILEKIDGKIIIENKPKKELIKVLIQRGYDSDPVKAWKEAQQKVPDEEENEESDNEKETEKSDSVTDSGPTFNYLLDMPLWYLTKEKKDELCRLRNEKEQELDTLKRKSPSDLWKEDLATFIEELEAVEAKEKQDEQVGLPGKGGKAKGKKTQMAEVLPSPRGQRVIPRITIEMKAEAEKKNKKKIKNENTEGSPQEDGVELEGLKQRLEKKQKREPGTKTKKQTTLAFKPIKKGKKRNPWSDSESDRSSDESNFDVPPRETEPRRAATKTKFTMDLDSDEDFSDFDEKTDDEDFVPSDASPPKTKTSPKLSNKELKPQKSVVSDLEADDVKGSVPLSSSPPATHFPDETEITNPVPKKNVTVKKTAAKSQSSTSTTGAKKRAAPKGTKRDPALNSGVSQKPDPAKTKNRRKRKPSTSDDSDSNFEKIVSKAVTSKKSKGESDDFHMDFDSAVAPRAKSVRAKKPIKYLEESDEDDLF
Test: Inhibition of human DNA topoisomerase 2alpha assessed as relaxation of supercoiled pBR322 DNA at 100 uM after 30 mins using ethidium bromide staining by agarose gel electrophoresis
measured_endpoint: inhibition (%)

compound_structure_string | unit_tag | measured
Oc1ccc(-c2cc(-c3ccsc3)nc3c2COc2ccccc2-3)cc1 | % | 100
Oc1ccc(-c2cc(-c3ccccc3)nc3c2COc2ccccc2-3)cc1 | % | 94.1
Oc1ccccc1-c1cc(-c2ccco2)nc2c1COc1ccccc1-2 | % | 91.5
Oc1cccc(-c2cc(-c3ccsc3)nc3c2COc2ccccc2-3)c1 | % | 100
Oc1ccc(-c2cc(-c3ccccc3O)nc3c2COc2ccccc2-3)cc1 | % | 89.3
Oc1ccccc1-c1cc(-c2cccs2)nc2c1COc1ccccc1-2 | % | 95.7
Oc1cccc(-c2cc(-c3ccccc3O)nc3c2COc2ccccc2-3)c1 | % | 88.6
Oc1cccc(-c2cc(-c3ccccc3)nc3c2COc2ccccc2-3)c1 | % | 94.8
Oc1ccccc1-c1cc(-c2ccccc2)nc2c1COc1ccccc1-2 | % | 84.7
Oc1cccc(-c2cc(-c3cccc(O)c3)c3c(n2)-c2ccccc2OC3)c1 | % | 93.3
Oc1cccc(-c2cc(-c3ccccc3O)c3c(n2)-c2ccccc2OC3)c1 | % | 92.1
Oc1ccc(-c2cc(-c3cccc(O)c3)nc3c2COc2ccccc2-3)cc1 | % | 93.5
Oc1ccc(-c2cc(-c3cccc(O)c3)c3c(n2)-c2ccccc2OC3)cc1 | % | 93
Oc1ccc(-c2cc(-c3ccc(O)cc3)c3c(n2)-c2ccccc2OC3)cc1 | % | 97.2
Oc1ccc(-c2cc(-c3ccccc3O)c3c(n2)-c2ccccc2OC3)cc1 | % | 93.6
Oc1cccc(-c2cc(-c3ccco3)nc3c2COc2ccccc2-3)c1 | % | 84.9
Oc1ccc(-c2cc(-c3cccs3)nc3c2COc2ccccc2-3)cc1 | % | 91.7
Oc1ccccc1-c1cc(-c2ccccc2O)c2c(n1)-c1ccccc1OC2 | % | 78
Oc1ccccc1-c1cc(-c2ccsc2)nc2c1COc1ccccc1-2 | % | 100
Oc1cccc(-c2cc(-c3cccs3)nc3c2COc2ccccc2-3)c1 | % | 99
Oc1ccc(-c2cc(-c3ccco3)nc3c2COc2ccccc2-3)cc1 | % | 95.6

====

System: HCT-15
Assay: Cytotoxicity against human HCT15 cells after 2 days by CCK8 assay
Assay type: functional, cell-based
Details: HCT-15, 48 h
pIC50: −log10 of the molar value.
measured_endpoint: pIC50

compound_structure_string | measured_endpoint | measured
Oc1ccccc1-c1cc(-c2ccco2)nc2c1COc1ccccc1-2 | pIC50 | 5.70
Oc1ccc(-c2cc(-c3cccc(O)c3)c3c(n2)-c2ccccc2OC3)cc1 | pIC50 | 5.53
Oc1ccc(-c2cc(-c3ccco3)nc3c2COc2ccccc2-3)cc1 | pIC50 | 5.91
Oc1ccc(-c2cc(-c3ccsc3)nc3c2COc2ccccc2-3)cc1 | pIC50 | 5.78
Oc1cccc(-c2cc(-c3ccccc3O)nc3c2COc2ccccc2-3)c1 | pIC50 | 5.68
Oc1cccc(-c2cc(-c3ccccc3)nc3c2COc2ccccc2-3)c1 | pIC50 | 5.52
Oc1cccc(-c2cc(-c3ccsc3)nc3c2COc2ccccc2-3)c1 | pIC50 | 5.91
Oc1ccc(-c2cc(-c3cccs3)nc3c2COc2ccccc2-3)cc1 | pIC50 | 5.82
Oc1ccc(-c2cc(-c3cccc(O)c3)nc3c2COc2ccccc2-3)cc1 | pIC50 | 6.26
Oc1ccccc1-c1cc(-c2ccsc2)nc2c1COc1ccccc1-2 | pIC50 | 5.50
Oc1ccc(-c2cc(-c3ccccc3)nc3c2COc2ccccc2-3)cc1 | pIC50 | 4.82
Oc1cccc(-c2cc(-c3cccs3)nc3c2COc2ccccc2-3)c1 | pIC50 | 5.50
Oc1ccccc1-c1cc(-c2ccccc2)nc2c1COc1ccccc1-2 | pIC50 | 5.46
Oc1ccc(-c2cc(-c3ccccc3O)c3c(n2)-c2ccccc2OC3)cc1 | pIC50 | 5.78

====

System: DU-145
Assay: Cytotoxicity against human DU145 cells after 2 days by CCK8 assay
Format: functional, cell-based
Conditions: DU-145, 48 h
pIC50: −log10 of the molar value.
measured_endpoint: pIC50

compound | qual | measured
COc1cc([C@@H]2c3cc4c(cc3[C@@H](O[C@@H]3O[C@@H]5CO[C@@H](C)O[C@H]5[C@H](O)[C@H]3O)[C@H]3COC(=O)[C@H]23)OCO4)cc(OC)c1O [ETOPOSIDE] | = | 4.88
Oc1ccccc1-c1cc(-c2ccccc2O)c2c(n1)-c1ccccc1OC2 | = | 5.33
Oc1ccc(-c2cc(-c3ccsc3)nc3c2COc2ccccc2-3)cc1 | = | 6.41
Oc1cccc(-c2cc(-c3ccccc3O)nc3c2COc2ccccc2-3)c1 | = | 5.20
Oc1ccc(-c2cc(-c3cccc(O)c3)c3c(n2)-c2ccccc2OC3)cc1 | = | 5.69
Oc1ccccc1-c1cc(-c2ccsc2)nc2c1COc1ccccc1-2 | = | 6.13
Oc1cccc(-c2cc(-c3cccs3)nc3c2COc2ccccc2-3)c1 | = | 6.07
Oc1ccc(-c2cc(-c3ccccc3)nc3c2COc2ccccc2-3)cc1 | = | 5.81
Oc1ccc(-c2cc(-c3ccccc3O)nc3c2COc2ccccc2-3)cc1 | < | 4.30
Oc1cccc(-c2cc(-c3cccc(O)c3)c3c(n2)-c2ccccc2OC3)c1 | = | 5.80
Oc1ccc(-c2cc(-c3ccccc3O)c3c(n2)-c2ccccc2OC3)cc1 | = | 5.71
Oc1ccccc1-c1cc(-c2ccccc2)nc2c1COc1ccccc1-2 | = | 5.30
Oc1cccc(-c2cc(-c3ccco3)nc3c2COc2ccccc2-3)c1 | = | 5.51

====

IC50 reference
Test: Cytotoxicity against human MCF10A cells after 2 days by CCK8 assay
Assay type: cell-based
Conditions: MCF-10A, 48 h

molecule | IC50 / µM
c1ccc(-c2cc(-c3ccccc3)c3c(n2)-c2ccccc2OC3)cc1 | 6.58
Oc1cccc(-c2cc(-c3ccccc3O)nc3c2COc2ccccc2-3)c1 | 4.61
COc1cc([C@@H]2c3cc4c(cc3[C@@H](O[C@@H]3O[C@@H]5CO[C@@H](C)O[C@H]5[C@H](O)[C@H]3O)[C@H]3COC(=O)[C@H]23)OCO4)cc(OC)c1O [ETOPOSIDE] | 10.1
Oc1ccc(-c2cc(-c3ccsc3)nc3c2COc2ccccc2-3)cc1 | 5.83
Oc1ccc(-c2cc(-c3cccs3)nc3c2COc2ccccc2-3)cc1 | 6.24
Oc1ccc(-c2cc(-c3cccc(O)c3)nc3c2COc2ccccc2-3)cc1 | 2.42
Oc1cccc(-c2cc(-c3ccccc3)nc3c2COc2ccccc2-3)c1 | 8.52
COc1cccc2c1C(=O)c1c(O)c3c(c(O)c1C2=O)C[C@@](O)(C(=O)CO)C[C@@H]3O[C@H]1C[C@H](N)[C@H](O)[C@H](C)O1 | 1.23

====

Each record here notes measured pIC50.
Tested on: HCT-15
Experiment: Cytotoxicity against human HCT15 cells after 2 days by CCK8 assay
Format: functional, cell-based
Details: HCT-15, 48 h
pIC50: −log10 of the molar value.
measured_endpoint: pIC50

molecule | measured_endpoint | measured
Oc1ccccc1-c1cc(-c2cccs2)nc2c1COc1ccccc1-2 | pIC50 | 5.71
Oc1cccc(-c2cc(-c3ccccc3O)c3c(n2)-c2ccccc2OC3)c1 | pIC50 | 6.00
CC[C@@]1(O)C(=O)OCc2c1cc1n(c2=O)Cc2cc3ccccc3nc2-1 | pIC50 | 6.52
Oc1cccc(-c2cc(-c3cccc(O)c3)c3c(n2)-c2ccccc2OC3)c1 | pIC50 | 5.39
Oc1ccc(-c2cc(-c3ccc(O)cc3)c3c(n2)-c2ccccc2OC3)cc1 | pIC50 | 6.16
COc1cc([C@@H]2c3cc4c(cc3[C@@H](O[C@@H]3O[C@@H]5CO[C@@H](C)O[C@H]5[C@H](O)[C@H]3O)[C@H]3COC(=O)[C@H]23)OCO4)cc(OC)c1O [ETOPOSIDE] | pIC50 | 5.59
Oc1cccc(-c2cc(-c3ccco3)nc3c2COc2ccccc2-3)c1 | pIC50 | 5.32
Oc1ccc(-c2cc(-c3ccccc3O)nc3c2COc2ccccc2-3)cc1 | pIC50 | 5.81
Oc1ccccc1-c1cc(-c2ccccc2O)c2c(n1)-c1ccccc1OC2 | pIC50 | 5.45
